# measured.on: Cannabinoid receptor 2 (Homo sapiens)
# Sequence (P34972 whole entry): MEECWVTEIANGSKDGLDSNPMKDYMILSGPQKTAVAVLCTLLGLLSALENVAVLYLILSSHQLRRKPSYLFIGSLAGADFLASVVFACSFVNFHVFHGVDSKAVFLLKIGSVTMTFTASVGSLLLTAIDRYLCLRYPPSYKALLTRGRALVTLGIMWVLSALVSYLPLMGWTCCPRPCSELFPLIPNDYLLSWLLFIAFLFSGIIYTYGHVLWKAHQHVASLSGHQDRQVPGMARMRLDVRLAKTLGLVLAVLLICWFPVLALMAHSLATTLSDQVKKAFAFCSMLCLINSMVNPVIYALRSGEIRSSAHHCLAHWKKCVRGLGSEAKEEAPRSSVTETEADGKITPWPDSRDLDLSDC
# assay.procedure: cAMP Assay: CHO cells expressing human CB1 or CB2 receptors are seeded 17-24 hours prior to the experiment 50.000 cells per well in a black 96 well plate with flat clear bottom (Corning Costar #3904) in DMEM (Invitrogen No. 31331), 1×HT supplement, with 10% fetal calf serum and incubated at 5% CO2 and 37° C. in a humidified incubator. The growth medium was exchanged with Krebs Ringer Bicarbonate buffer with 1 mM IBMX and incubated at 30° C. for 30 min. Compounds were added to a final assay volume of 100 μl and incubated for 30 min at 30° C. Using the cAMP-Nano-TRF detection kit the assay (Roche Diagnostics) was stopped by the addition of 50 μl lysis reagent (Tris, NaCl, 1.5% Triton X100, 2.5% NP40, 10% NaN3) and 50 μl detection solutions (20 μM mAb Alexa700-cAMP 1:1, and 48 μM Ruthenium-2-AHA-cAMP) and shaken for 2 h at room temperature. The time-resolved energy transfer is measured by a TRF reader (Evotec Technologies GmbH), equipped with a ND:YAG laser as excitation source. The plate is measured twice with the excitation at 355 nm and at the emission with a delay of 100 ns and a gate of 100 ns, total exposure time 10s at 730 (bandwidth 30 nm) or 645 nm (bandwidth 75 nm), respectively.
attribute.measured: EC50 (nM)

O=C(NN1CCCCC1)c1cnc(C2CC2)c(OCC2CC2)n1 = 327
O=C(NC1(CO)CCCCC1)c1cnc(N2CC(F)(F)C2)c(OCC2CC2)n1 = 1.8
CC(C)(O)[C@H](CC1CC1)NC(=O)c1cnc(C2CC2)c(OCC2CC2)n1 = 198
CNC(=O)C(CC1CCC1)NC(=O)c1cnc(N2CC(F)(F)C2)c(OCC2CC2)n1 (stereo not given) = 51.7
CC(C)(CCc1ccncc1)NC(=O)c1cnc(C2CC2)c(OCC2CC2)n1 = 280
